# Test system: S. cerevisiae Mot1-301 ts growth rescue, BacTiter-Glo ATP luminescence
# assay.protocol: restored Mot1-301 yeast growth at 38.5C – whole organism, S. cerevisiae, Mot1-301 ts mutant, luminescence, dose retest, SUMOylation pathway inhibitor project, confirmation (AID 463204);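 also: growth at restrictive 38.5 degrees C of Mot1-301 OY566 strain; actives raise luminescence by restoring growth of the ts mutant at high temperature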
Active and inactive are the calls of the source.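 The calls were made as follows: active = AC50 no more than ten times the top concentration tested, that is within one log above it; inconclusive = flat curve fit with activity between 30% and 70%, or invalid poor fit; inactive = AC50 beyond ten times the top tested dose.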
Outcome codes: 1 (yes) = active, 0 (no) = inactive

compound	target.or.system	assigned.label
COc1ccc(C2CC(c3cccs3)=NN2C(=O)c2ccccc2)cc1OC (stereo unspecified)	S. cerevisiae Mot1-301 ts growth rescue, BacTiter-Glo ATP luminescence	0 (no)
CCC(C)NC(=O)CSc1nnc(-c2cc(-c3ccc(C)cc3)nc3ccccc23)n1N (stereo unspecified)	S. cerevisiae Mot1-301 ts growth rescue, BacTiter-Glo ATP luminescence	0 (no)
Cc1ccc(C)c(C(C)NC(=O)c2ccncc2)c1 (stereo unspecified)	S. cerevisiae Mot1-301 ts growth rescue, BacTiter-Glo ATP luminescence	0 (no)
O=S(=O)(NCC1CCCN(Cc2ccccc2O)C1)c1cccc2cccnc12 (stereo unspecified)	S. cerevisiae Mot1-301 ts growth rescue, BacTiter-Glo ATP luminescence	0 (no)
O=C(CSc1nnc2ccccn12)NNC(=O)c1ccc(Cl)cc1	S. cerevisiae Mot1-301 ts growth rescue, BacTiter-Glo ATP luminescence	0 (no)
COCCN(C(=O)C1CC1)c1nnc(-c2ccc(C)cc2)s1	S. cerevisiae Mot1-301 ts growth rescue, BacTiter-Glo ATP luminescence	0 (no)
C/C(=N\NC(=O)Cc1csc(N2CCOCC2)n1)c1ccccc1	S. cerevisiae Mot1-301 ts growth rescue, BacTiter-Glo ATP luminescence	0 (no)
CCC(=O)Nc1ccc(Br)c(Cl)c1	S. cerevisiae Mot1-301 ts growth rescue, BacTiter-Glo ATP luminescence	0 (no)
CC1(C)CNc2cc([N+](=O)[O-])ccc2S1	S. cerevisiae Mot1-301 ts growth rescue, BacTiter-Glo ATP luminescence	1 (yes)
O=C(Nc1cccc(Cl)c1)OCc1cncs1	S. cerevisiae Mot1-301 ts growth rescue, BacTiter-Glo ATP luminescence	0 (no)
NC(=O)c1cccc2cc3ccccc3cc12	S. cerevisiae Mot1-301 ts growth rescue, BacTiter-Glo ATP luminescence	0 (no)
O=C1CN(C(=O)c2ccccc2F)C(c2ccccc2)c2cc(Cl)ccc2N1 (stereo unspecified)	S. cerevisiae Mot1-301 ts growth rescue, BacTiter-Glo ATP luminescence	1 (yes)
CCOc1ccc2nc(CN3CCN(Cc4ccccc4OCC)C(CCO)C3)ccc2c1 (stereo unspecified)	S. cerevisiae Mot1-301 ts growth rescue, BacTiter-Glo ATP luminescence	0 (no)
Cc1ccc(S(=O)(=O)N[C@@H](Cc2ccccc2)C(=O)CCl)cc1	S. cerevisiae Mot1-301 ts growth rescue, BacTiter-Glo ATP luminescence	1 (yes)
COc1cc(C(=O)NCCC2=CCCCC2)ccc1OC1CCN(C(C)=O)CC1	S. cerevisiae Mot1-301 ts growth rescue, BacTiter-Glo ATP luminescence	0 (no)
CCc1ccc(NC(=O)N2CCC(c3ccccc3)C2)cc1 (stereo unspecified)	S. cerevisiae Mot1-301 ts growth rescue, BacTiter-Glo ATP luminescence	0 (no)
CSc1ncc2ncn(C3OC(CO)C(O)C3O)c2n1 (stereo unspecified)	S. cerevisiae Mot1-301 ts growth rescue, BacTiter-Glo ATP luminescence	0 (no)
Clc1ccc(CSc2nnc(CN3CCOCC3)n2-c2ccccc2)cc1Cl	S. cerevisiae Mot1-301 ts growth rescue, BacTiter-Glo ATP luminescence	0 (no)
Nc1ccc(C2(c3ccc(N)cc3)OC(=O)c3ccccc32)cc1	S. cerevisiae Mot1-301 ts growth rescue, BacTiter-Glo ATP luminescence	0 (no)
CC(=O)c1cccc(NC(=O)CN(c2cccc(F)c2)S(C)(=O)=O)c1	S. cerevisiae Mot1-301 ts growth rescue, BacTiter-Glo ATP luminescence	0 (no)
CCOCCCNC(=O)C(c1ccc(OC)cc1)N(Cc1ccc2c(c1)OCO2)C(=O)CNC(C)=O (stereo unspecified)	S. cerevisiae Mot1-301 ts growth rescue, BacTiter-Glo ATP luminescence	0 (no)
CCOC(=O)NC1(Nc2ccc(C)cc2)Oc2ccccc2O1	S. cerevisiae Mot1-301 ts growth rescue, BacTiter-Glo ATP luminescence	0 (no)
CCCc1ccc(S(=O)(=O)NCCc2ccncc2)cc1	S. cerevisiae Mot1-301 ts growth rescue, BacTiter-Glo ATP luminescence	0 (no)
Nc1nc(CSc2nnnn2-c2ccc(Cl)cc2)nc(N2CCOCC2)n1	S. cerevisiae Mot1-301 ts growth rescue, BacTiter-Glo ATP luminescence	0 (no)
Cc1nc(C)n(CC(=O)N2CCCC(C(=O)c3cccc4ccccc34)C2)n1 (stereo unspecified)	S. cerevisiae Mot1-301 ts growth rescue, BacTiter-Glo ATP luminescence	0 (no)
O=C(O)Cc1sc(Nc2ccccc2)nc1-c1cccs1	S. cerevisiae Mot1-301 ts growth rescue, BacTiter-Glo ATP luminescence	0 (no)
COC(=O)C1(Cc2ccc(O)cc2)OC(=O)C(O)=C1c1ccc(O)cc1 (stereo unspecified)	S. cerevisiae Mot1-301 ts growth rescue, BacTiter-Glo ATP luminescence	0 (no)
Fc1ccccc1-n1cc(-c2ccccc2)[nH]c1=S	S. cerevisiae Mot1-301 ts growth rescue, BacTiter-Glo ATP luminescence	0 (no)
CCOC(=O)c1c(C)n(C)c2cc(-c3ccc(C)cc3)c(O)cc12	S. cerevisiae Mot1-301 ts growth rescue, BacTiter-Glo ATP luminescence	0 (no)
CC(=O)Nc1ccc(C(=O)NCCCOC(C)C)cc1	S. cerevisiae Mot1-301 ts growth rescue, BacTiter-Glo ATP luminescence	0 (no)
Cc1ccc(C)c(N2CCN(C(c3ccncc3)c3nnnn3Cc3ccccc3)CC2)c1 (stereo unspecified)	S. cerevisiae Mot1-301 ts growth rescue, BacTiter-Glo ATP luminescence	0 (no)
CC1(C)CC(=O)c2cnc(NC(=O)CSc3nc4ccccc4o3)nc2C1	S. cerevisiae Mot1-301 ts growth rescue, BacTiter-Glo ATP luminescence	0 (no)
Cc1cccc(N(C(=O)c2ccc(CN3CCOCC3)o2)C(C(=O)NC2CCCCC2)c2ccc(F)cc2)c1 (stereo unspecified)	S. cerevisiae Mot1-301 ts growth rescue, BacTiter-Glo ATP luminescence	0 (no)
O=C(Nc1ccccc1N1CCN(c2ccccc2)CC1)c1cccc(F)c1	S. cerevisiae Mot1-301 ts growth rescue, BacTiter-Glo ATP luminescence	0 (no)
COc1ccc(C2=C(N)c3ccccc3C2=O)cc1	S. cerevisiae Mot1-301 ts growth rescue, BacTiter-Glo ATP luminescence	0 (no)
Cc1cc(C)c(NC(=O)CCN2CCN(Cc3ccccc3)CC2)c(C)c1	S. cerevisiae Mot1-301 ts growth rescue, BacTiter-Glo ATP luminescence	0 (no)
COc1cc2c(cc1OC)C(c1ccc(SC)cc1)CC(=O)N2 (stereo unspecified)	S. cerevisiae Mot1-301 ts growth rescue, BacTiter-Glo ATP luminescence	0 (no)
CN(C)c1oc(-c2ccccc2Cl)nc1S(=O)(=O)c1ccccc1	S. cerevisiae Mot1-301 ts growth rescue, BacTiter-Glo ATP luminescence	0 (no)
Fc1ccc(-c2cc(C(F)(F)F)nc(NCc3cccs3)n2)cc1	S. cerevisiae Mot1-301 ts growth rescue, BacTiter-Glo ATP luminescence	0 (no)
COc1ccc(C2C(C(C)=O)=C(O)C(=O)N2CCO)c(OC)c1 (stereo unspecified)	S. cerevisiae Mot1-301 ts growth rescue, BacTiter-Glo ATP luminescence	0 (no)
Cc1ccc2nc(/C(C#N)=C\c3cc(O)ccc3[N+](=O)[O-])[nH]c2c1	S. cerevisiae Mot1-301 ts growth rescue, BacTiter-Glo ATP luminescence	0 (no)
CCC(=O)Nc1ccc(S(=O)(=O)NCc2ccco2)cc1	S. cerevisiae Mot1-301 ts growth rescue, BacTiter-Glo ATP luminescence	0 (no)
Cc1cc(C)c(S(=O)(=O)c2cccc(C)c2C)c(=O)[nH]1	S. cerevisiae Mot1-301 ts growth rescue, BacTiter-Glo ATP luminescence	0 (no)
Cc1c(C(=O)N2CCN(CCc3ccccc3)CC2)oc2ccccc12	S. cerevisiae Mot1-301 ts growth rescue, BacTiter-Glo ATP luminescence	0 (no)
O=C(Oc1ccc2c(c1)OCO2)c1cccs1	S. cerevisiae Mot1-301 ts growth rescue, BacTiter-Glo ATP luminescence	0 (no)
CCOC(=O)c1sc2ncn(C(CC)C(=O)OCC)c(=O)c2c1C (stereo unspecified)	S. cerevisiae Mot1-301 ts growth rescue, BacTiter-Glo ATP luminescence	0 (no)
